Molecular target: T1, hASIC1a on CHO-K1 cells stably expressing hASIC1a (human, UniProt P78348 1-528)
T1 sequence (looked up): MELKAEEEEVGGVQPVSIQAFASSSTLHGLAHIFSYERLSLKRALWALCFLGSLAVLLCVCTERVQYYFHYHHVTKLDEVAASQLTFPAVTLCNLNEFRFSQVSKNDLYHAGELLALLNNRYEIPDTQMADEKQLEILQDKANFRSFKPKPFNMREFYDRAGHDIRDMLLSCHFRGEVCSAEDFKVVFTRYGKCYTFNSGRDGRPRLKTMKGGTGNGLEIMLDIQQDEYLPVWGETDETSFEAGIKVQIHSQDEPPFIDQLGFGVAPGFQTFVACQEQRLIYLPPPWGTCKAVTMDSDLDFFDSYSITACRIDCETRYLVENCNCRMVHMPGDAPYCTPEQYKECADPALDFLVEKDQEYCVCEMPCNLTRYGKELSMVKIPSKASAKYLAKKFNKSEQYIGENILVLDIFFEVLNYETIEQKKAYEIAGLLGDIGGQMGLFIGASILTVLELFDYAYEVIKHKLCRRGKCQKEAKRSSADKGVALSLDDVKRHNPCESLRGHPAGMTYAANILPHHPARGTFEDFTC
Experiment: cell-based or functional assay
Record form. Attribute: Percent inhibition of the acid induced-hASIC1a currents, 100 nM antibody (Patch Clamp). Fill in for each entry.
A number alone suffices; assume %.

Note to self: Percent inhibition of the acid induced-hASIC1a currents, 100 nM antibody (Patch Clamp) recorded for ASC06-03-IgG1 (antibody, V domains shown, Full length IgG1) VH: QVQLQQSGGGLVQPGGSLRLSCAASGFTFSSYAMSWVRQAPGKGLEWVSAISGSGGSTYYADSVKGRFTISRDNSKNTLYLQMNSLRAEDTAVYYCAKDSFYGRAKGSWGQGTLVTVSS VL: QSALTQPASVSGSPGQSITISCTGTSSDVGAYNYVSWYQQQPGKAPKLMIYGVSNRPSGVSNRFSGSKSGNAASLTISGLQAEDEADYYCSSYTSSSTYVFGTGTKLTVLG was 89.7

Note to self: Percent inhibition of the acid induced-hASIC1a currents, 100 nM antibody (Patch Clamp) recorded for ASC06-01-IgG1 (antibody, V domains shown, Full length IgG1) VH: QVQLQQSGGGLVQPGGSLRLSCAASGFTFSSYAMSWVRQAPGKGLEWVSAISGSGGSTYYADSVKGRFTISRDNSKNTLYLQMNSLRAEDTAVYYCAKDSYFGYSKGDWGQGTLVTVSS VL: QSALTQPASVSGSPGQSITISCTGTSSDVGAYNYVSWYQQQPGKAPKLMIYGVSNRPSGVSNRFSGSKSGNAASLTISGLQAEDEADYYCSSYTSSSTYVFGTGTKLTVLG was 49

Note to self: Percent inhibition of the acid induced-hASIC1a currents, 100 nM antibody (Patch Clamp) recorded for ASC06-04-IgG1 (antibody, V domains shown, Full length IgG1) VH: QVQLQQSGGGLVQPGGSLRLSCAASGFTFSSYAMSWVRQAPGKGLEWVSAISGSGGSTYYADSVKGRFTISRDNSKNTLYLQMNSLRAEDTAVYYCAKDSFYGRAKGVWGQGTLVTVSS VL: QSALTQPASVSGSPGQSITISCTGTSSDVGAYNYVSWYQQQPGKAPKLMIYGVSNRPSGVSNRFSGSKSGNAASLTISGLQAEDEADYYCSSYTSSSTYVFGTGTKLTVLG was 96.7

Note to self: Percent inhibition of the acid induced-hASIC1a currents, 100 nM antibody (Patch Clamp) recorded for ASC06-02-IgG1 (antibody, V domains shown, Full length IgG1) VH: QVQLQQSGGGLVQPGGSLRLSCAASGFTFSSYAMSWVRQAPGKGLEWVSAISGSGGSTYYADSVKGRFTISRDNSKNTLYLQMNSLRAEDTAVYYCAKDSFFGRAKGSWGQGTLVTVSS VL: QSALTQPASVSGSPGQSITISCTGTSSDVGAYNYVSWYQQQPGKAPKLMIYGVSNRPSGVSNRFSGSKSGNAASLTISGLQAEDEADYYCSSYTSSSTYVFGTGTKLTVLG was 97.2

Note to self: Percent inhibition of the acid induced-hASIC1a currents, 100 nM antibody (Patch Clamp) recorded for ASC06-IgG1 (antibody, V domains shown, Tested as full length IgG1; also called WT antibody ASC06-IgG1; parental ASC06-IgG1 antibody) VH: QVQLQQSGGGLVQPGGSLRLSCAASGFTFSSYAMSWVRQAPGKGLEWVSAISGSGGSTYYADSVKGRFTISRDNSKNTLYLQMNSLRAEDTAVYYCAKDSFYGYSKGDWGQGTLVTVSS VL: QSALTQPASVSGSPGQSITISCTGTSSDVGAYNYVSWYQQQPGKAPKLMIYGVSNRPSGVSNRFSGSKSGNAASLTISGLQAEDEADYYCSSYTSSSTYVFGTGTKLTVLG was 55.5

This collection of values is drawn from patent US20230174642A1.
